- testSystem: human Nav1.8 (Homo sapiens (Human))
- protocolSummary: E-VIPR optical membrane potential assay with electrical stimulation
- details: HEK cells expressing human Nav1.8
pIC50: −log10 of the molar value.
reportedProperty: pIC50

Solved entries (count: 5):
Cc1cc(Cl)ccc1Oc1cc(Cl)c(Cl)cc1C(=O)Nc1ccc(C(=O)O)nc1 7.13
COc1ccc(Oc2cc(Cl)c(Cl)cc2C(=O)Nc2ccc(C(=O)O)cc2)c(Cl)c1 7.04
COc1ccc(Oc2ccc(C(F)(F)F)cc2C(=O)Nc2ccc(C(=O)O)nc2)c(Cl)c1 6.87
COc1ccccc1Oc1cc(C(F)(F)F)cc(C(F)(F)F)c1C(=O)Nc1ccc(C(=O)O)nc1 7.19
O=C(O)c1ccc(NC(=O)c2cc(C(F)(F)F)ccc2Oc2ccccc2OC(F)F)cn1 6.19

A. O=C(O)c1ccc(NC(=O)c2cc(Cl)c(Cl)cc2Oc2ccc(F)cc2Cl)cc1
B. COc1cc(F)ccc1Oc1ccc(C(F)(F)F)cc1C(=O)Nc1ccc(C(=O)O)nc1
# returns the entry with the larger pIC50; inputs A and B Identify your selection by its label. A
(A: 7.48, B: 7.02)

1. O=C(O)c1ccc(NC(=O)c2ccc(C(F)(F)C(F)(F)F)cc2Oc2ccc(F)cc2Cl)cc1
2. COc1c(F)cccc1Oc1ccc(C(F)(F)F)cc1C(=O)Nc1ccc(C(=O)O)nc1
3. COc1ccc(Oc2ccc(C(F)(F)F)cc2C(=O)Nc2ccc(C(=O)O)nc2)c(C)c1
4. Cc1cc(F)ccc1Oc1cc(C(F)(F)F)cc(C(F)(F)F)c1C(=O)Nc1ccc(C(=O)O)nc1
Sort these compounds on pIC50 so the largest reading comes first. Reply: labels, ordered per the request. 1, 4, 3, 2

###

- testSystem: human Nav1.8 (Homo sapiens (Human), UniProt Q9Y5Y9)
- Sequence (Q9Y5Y9 whole entry): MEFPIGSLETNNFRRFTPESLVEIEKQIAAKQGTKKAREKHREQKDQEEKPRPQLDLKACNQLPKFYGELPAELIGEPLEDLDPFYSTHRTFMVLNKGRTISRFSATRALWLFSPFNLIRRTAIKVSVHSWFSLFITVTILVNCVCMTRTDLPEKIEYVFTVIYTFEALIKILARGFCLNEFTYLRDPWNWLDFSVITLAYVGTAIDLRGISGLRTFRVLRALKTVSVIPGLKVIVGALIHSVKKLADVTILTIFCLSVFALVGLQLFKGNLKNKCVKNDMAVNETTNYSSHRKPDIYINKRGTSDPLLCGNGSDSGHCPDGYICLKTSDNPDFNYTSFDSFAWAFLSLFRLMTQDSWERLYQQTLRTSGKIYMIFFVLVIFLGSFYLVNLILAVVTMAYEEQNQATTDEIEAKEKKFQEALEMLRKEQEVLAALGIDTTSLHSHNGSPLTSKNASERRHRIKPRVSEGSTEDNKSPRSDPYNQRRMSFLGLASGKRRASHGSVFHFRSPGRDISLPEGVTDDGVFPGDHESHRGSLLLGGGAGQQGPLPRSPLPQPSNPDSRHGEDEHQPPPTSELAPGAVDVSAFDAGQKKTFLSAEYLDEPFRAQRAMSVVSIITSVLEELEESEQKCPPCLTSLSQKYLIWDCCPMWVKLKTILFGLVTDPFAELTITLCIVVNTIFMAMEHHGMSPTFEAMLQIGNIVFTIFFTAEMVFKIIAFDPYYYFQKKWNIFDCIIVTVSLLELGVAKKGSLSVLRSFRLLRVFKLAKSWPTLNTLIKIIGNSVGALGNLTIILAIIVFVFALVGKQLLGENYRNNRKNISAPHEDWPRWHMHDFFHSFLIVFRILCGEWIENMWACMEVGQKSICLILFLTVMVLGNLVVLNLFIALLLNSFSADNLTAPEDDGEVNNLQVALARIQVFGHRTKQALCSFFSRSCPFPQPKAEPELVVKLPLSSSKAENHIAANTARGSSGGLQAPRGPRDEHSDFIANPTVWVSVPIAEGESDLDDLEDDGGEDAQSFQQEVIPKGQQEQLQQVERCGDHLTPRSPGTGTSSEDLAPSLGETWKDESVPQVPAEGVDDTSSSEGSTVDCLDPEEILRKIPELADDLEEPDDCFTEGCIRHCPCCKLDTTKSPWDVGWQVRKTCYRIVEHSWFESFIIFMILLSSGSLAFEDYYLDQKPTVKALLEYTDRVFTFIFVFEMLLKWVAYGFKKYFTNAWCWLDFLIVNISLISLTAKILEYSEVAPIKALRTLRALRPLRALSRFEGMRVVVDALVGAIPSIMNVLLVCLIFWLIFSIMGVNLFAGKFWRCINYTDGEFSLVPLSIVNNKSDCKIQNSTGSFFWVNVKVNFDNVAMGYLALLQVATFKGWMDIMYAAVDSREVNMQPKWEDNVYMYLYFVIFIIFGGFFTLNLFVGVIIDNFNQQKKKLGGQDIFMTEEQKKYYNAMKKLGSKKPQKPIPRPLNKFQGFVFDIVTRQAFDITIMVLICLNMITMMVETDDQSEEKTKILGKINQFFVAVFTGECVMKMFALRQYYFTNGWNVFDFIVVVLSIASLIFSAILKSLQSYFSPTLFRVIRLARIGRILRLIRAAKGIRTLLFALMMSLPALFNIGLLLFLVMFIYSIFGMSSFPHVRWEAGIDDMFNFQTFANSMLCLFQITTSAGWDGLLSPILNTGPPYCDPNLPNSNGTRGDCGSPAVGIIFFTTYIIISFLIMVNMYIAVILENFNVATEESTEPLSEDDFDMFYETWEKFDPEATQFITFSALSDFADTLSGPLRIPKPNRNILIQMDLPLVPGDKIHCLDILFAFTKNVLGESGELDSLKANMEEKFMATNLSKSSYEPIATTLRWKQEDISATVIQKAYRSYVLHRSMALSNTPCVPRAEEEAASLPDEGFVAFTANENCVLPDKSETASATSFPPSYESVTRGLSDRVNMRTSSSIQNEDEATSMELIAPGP
- protocolSummary: E-VIPR optical membrane potential assay with electrical stimulation
- details: HEK cells expressing human Nav1.8
reportedProperty: IC50 (nM)

Solved entries (count: 2):
O=C(O)c1ccc(NC(=O)c2cc(C(F)(F)F)ccc2Oc2ccc(F)cc2Cl)cn1 80
O=C(O)c1ccc(NC(=O)c2cc(C(F)(F)F)ccc2Oc2ccccc2)cn1 985

1. O=C(O)c1ccc(NC(=O)c2cc(Cl)c(Cl)cc2Oc2ccc(OCC(F)(F)F)cc2)cc1
2. O=C(O)c1ccc(NC(=O)c2cc(Cl)c(Cl)cc2Oc2ccccc2)cn1
# returns the entry with the larger IC50; inputs 1 and 2 Identify your selection by its label. 2
(2: 190 nM, 1: 62 nM)
